# test_method_notes: light fastness test (xenon fadeometer, percentage fading)
# Assay type: physicochemical
# study_conditions: Table A3, Comparative Examples A1-A6, 50° C., 70 kJ/m^2

| compound | Light fastness |
| --- | --- |
| CNc1ccc(O)c2c1C(=O)c1c(O)ccc(NC)c1C2=O [Comp. Ex. A4, C.I. Disperse Blue 26, reference compound] | Δ |
| CNc1ccc(Nc2cccc(C)c2)c2c1C(=O)c1ccccc1C2=O [Comp. Ex. A3, C.I. Solvent Blue 63, reference compound] | Δ |

* * *

# test_method_notes: light fastness test (xenon fadeometer, percentage fading)
# Assay type: physicochemical
# study_conditions: Table A3, Comparative Examples A1-A6, 50° C., 70 kJ/m^2

| compound | Light fastness |
| --- | --- |
| CC(C)Nc1ccc(NC(C)C)c2c1C(=O)c1ccccc1C2=O [Comp. Ex. A2, C.I. Disperse Blue 134, reference compound] | Δ |
| CNc1ccc(NC)c2c1C(=O)c1ccccc1C2=O [Comp. Ex. A1, C.I. Disperse Blue 14, reference compound] | Δ |
| CNc1ccc(N)c2c1C(=O)c1ccccc1C2=O [Comp. Ex. A5, C.I. Disperse Violet 4, reference compound] | Δ |
